Data origin, for the record: ChEMBL document CHEMBL1129455

Test system: Cancer cell lines
Assay: concentration to inhibit 50%cancer cell growth and the value is the mean value which was obtained from 60 cancer cell line assay
Assay type: functional
We label by threshold. Values of GI50 strictly beneath 1000 nM are y. Values of 1000 nM and up are n.

>  <MOLECULE>
O=C1C(N2CC2)=CC(=O)c2c1nc1n2CCC1

>  <LABEL>
y

$$$$
>  <MOLECULE>
COC1=C(N2CC2)C(=O)c2nc3n(c2C1=O)CCC3

>  <LABEL>
y

$$$$
>  <MOLECULE>
O=C1C=C(N2CC2)C(=O)c2c1nc1n2CCC1

>  <LABEL>
n

$$$$
>  <MOLECULE>
CC(=O)OC1CCn2c1nc1c2C(=O)C=C(N2CC2)C1=O (stereo unspecified)

>  <LABEL>
y

$$$$
>  <MOLECULE>
CC(=O)NC1=C(C)C(=O)c2c(nc3n2CCC3)C1=O

>  <LABEL>
n

$$$$

Turning now to a further molecule:
### Prompt Quick check: does CC(=O)NC1=C(C)C(=O)c2c(nc3n2CCC3OC(C)=O)C1=O (stereo unspecified) have GI50 under 1000 nM?
### Response n

====

Tested on: Cancer cell lines
Experiment: The concentration to cause 50% cancer cell lethality and the value is the mean value which was obtained from 60 cancer cell line assay
Assay type: functional
OBSERVABLE: LC50 (µM)
Please state the figure in µM; there is no need to write the unit.

>  <COMPOUND>
COC1=C(N2CC2)C(=O)c2nc3n(c2C1=O)CCC3

>  <LC50 (µM)>
13.5

$$$$
>  <COMPOUND>
CC(=O)NC1=C(C)C(=O)c2c(nc3n2CCC3)C1=O

>  <LC50 (µM)>
10.7

$$$$

Next item in the queue.
### Prompt Could you tell me which LC50 is on file for CC(=O)OC1CCn2c1nc1c2C(=O)C(C)=C(N2CC2)C1=O (stereo not drawn) ?
### Response 0.245

====

System: Cancer cell lines
Experiment: concentration to inhibit 50%cancer cell growth and the value is the mean value which was obtained from 60 cancer cell line assay
Format: functional
As shown below, each of these molecules has a reported GI50 value.
# do not omit the unit; it follows the number

>  <MOLECULE>
COC1=C(NC(C)=O)C(=O)c2nc3n(c2C1=O)CCC3OC(C)=O (stereo not drawn)

>  <TESTED SYSTEM>
Cancer cell lines

>  <GI50>
18600 nM

$$$$
>  <MOLECULE>
CC(=O)OC1CCn2c1nc1c2C(=O)C(C)=C(N2CC2)C1=O (stereo not drawn)

>  <TESTED SYSTEM>
Cancer cell lines

>  <GI50>
12 nM

$$$$

Field: next molecule
### Prompt Value lookup for GI50; key = `CC1=C(N2CC2)C(=O)c2nc3n(c2C1=O)CCC3`
### Response 18.2 nM
